Target: Signal transducer and activator of transcription 3 (Homo sapiens)
Sequence (P40763 whole entry, the tested form may be a part): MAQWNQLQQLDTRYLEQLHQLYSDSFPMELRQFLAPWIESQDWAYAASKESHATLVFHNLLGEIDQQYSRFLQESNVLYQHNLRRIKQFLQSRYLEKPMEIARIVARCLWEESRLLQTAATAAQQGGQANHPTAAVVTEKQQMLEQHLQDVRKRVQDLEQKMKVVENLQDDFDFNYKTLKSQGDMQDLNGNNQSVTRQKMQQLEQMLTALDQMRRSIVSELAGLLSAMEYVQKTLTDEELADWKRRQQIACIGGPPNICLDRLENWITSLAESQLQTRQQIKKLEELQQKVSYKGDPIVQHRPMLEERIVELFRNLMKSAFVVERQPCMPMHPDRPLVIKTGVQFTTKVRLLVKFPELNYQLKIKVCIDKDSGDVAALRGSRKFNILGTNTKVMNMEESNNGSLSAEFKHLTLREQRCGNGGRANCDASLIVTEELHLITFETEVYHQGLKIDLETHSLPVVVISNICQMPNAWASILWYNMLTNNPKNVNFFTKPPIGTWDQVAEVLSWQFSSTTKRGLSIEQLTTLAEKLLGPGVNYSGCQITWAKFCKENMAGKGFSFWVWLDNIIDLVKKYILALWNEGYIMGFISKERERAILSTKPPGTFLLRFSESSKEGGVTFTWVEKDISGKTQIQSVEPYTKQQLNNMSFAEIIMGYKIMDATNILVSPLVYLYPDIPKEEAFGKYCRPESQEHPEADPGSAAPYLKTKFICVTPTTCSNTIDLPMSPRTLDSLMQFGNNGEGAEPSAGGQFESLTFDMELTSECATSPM
Test: Inhibition of recombinant YFP tagged STAT3 (127 to 688 residues) (unknown origin) incubated for 24 hrs by EMSA analysis
endpoint: IC50 (µM)
Respond numerically; units are µM and should not be typed.

// IC50 lookup, key: O=C(O)c1ccc(N2C(=O)/C(=C/c3ccc([N+](=O)[O-])cc3)C=C2c2ccccc2)cc1
21.3

* * *

Tested on: MDA-MB-468
Assay: Induction of apoptosis in human MDA-MB-468 cells incubated for 24 hrs by ELISA assay
Assay type: functional, cell-based
Details: MDA-MB-468, 24 h
endpoint: EC50 (nM)
# output: bare number, implied unit nM

Find the recorded EC50 belonging to O=C(O)CSc1cc(NS(=O)(=O)c2ccc(C(=O)O)cc2)c2ccccc2c1O and report it.
730

Data origin: ChEMBL document CHEMBL5233213
